Taken from paper PMC5540273.

# Tested on: MST1
# Construct: gene STK4
# cond: concentration: 1 μM, replicates: in singlicate; n = 1;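 note: KINOMEscan kinase panel screen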
Assignment: determine reported %Inh for the given compounds.
Numbers only, in %.

Worked cases, %Inh given:
[[record]]
compound = "CCCNC(=O)Nc1ccc(Oc2ncnc3ccn(C)c23)cc1"
observable = "%Inh"
readout_value = 0

[[record]]
compound = "COc1ccc(-c2coc3ccc(-c4nnc(SCc5cccc(C#N)c5)o4)cc23)cc1"
observable = "%Inh"
readout_value = 15

[[record]]
compound = "Cc1ccc(Oc2ccc(Nc3ncnc4cc[nH]c34)cc2C)cn1"
observable = "%Inh"
readout_value = 0

[[record]]
compound = "Nc1nc(-c2ccccc2F)c(-c2ccnc3ccccc23)s1 [GW560459]"
observable = "%Inh"
readout_value = 8


The compound COC(=O)c1c(-c2ccccc2)c2cc(Br)ccc2c(=O)n1Cc1ccc(NC(=O)CCC(=O)O)cc1 showed %Inh equal to 12

* * *

# Test system: FGFR2
# cond: concentration: 1 μM, replicates: in singlicate; n = 1
Is %Inh at least 20%? Then rule met. If not, rule not met.

[[record]]
compound = "O=C(Nc1n[nH]c2nc(-c3ccccc3)c(Br)cc12)C1CC1"
label_class = "rule not met"


Turning to the following compound.
INPUT: Given the entry COc1cc(Nc2nccc(N3CCC(NC(=O)C(C)c4ccc(Cl)cc4)C3)n2)cc(OC)c1OC (stereo not drawn) , answer whether its %Inh meets or surpasses 20%.
OUTPUT: rule met

* * *

# System: BIKE
# Construct: gene BMP2K
# cond: concentration: 1 μM, replicates: in singlicate; n = 1
Give measured %Inh for each item. Keep answers brief.
Give bare numbers, in %.

Observe how each entry below is paired with its result.
[[record]]
compound = "CCc1ccc(-c2ccc3c(c2)-c2nn(C)cc2S(=O)(=O)N3C)cc1"
unit = "%"
readout_value = 0

[[record]]
compound = "CCCC(=O)Nc1n[nH]c2ncc(-c3cccc4ccccc34)cc12"
unit = "%"
readout_value = 28

[[record]]
compound = "O=C(NCc1cccs1)c1cc(C(=O)c2c(Cl)cccc2Cl)c[nH]1"
unit = "%"
readout_value = 19

[[record]]
compound = "COc1cc2ncn(-c3cc(OCc4ccncc4Br)c(C(N)=O)s3)c2cc1OC"
unit = "%"
readout_value = 39

[[record]]
compound = "COc1cccc(C2=C(N(C)c3ccccc3)C(=O)NC2=O)c1"
unit = "%"
readout_value = 0


Each compound below has a recorded value; state its %Inh.
1. COC(=O)c1c(-c2ccccc2)c2cc(C)ccc2c(=O)n1Cc1ccccc1
2. COc1cc2nccc(Nc3cccc(Oc4ccccc4)c3)c2cc1OC.Cl
3. CCC(=O)c1c(-c2ccccc2)c2cc(Cl)ccc2c(=O)n1Cc1cc(C(=O)NC2CC2)n(C)n1

OUTPUT:
1. 0
2. 1
3. 0

* * *

# Test system: CSNK1E
# cond: concentration: 1 μM, replicates: in singlicate; n = 1
observable: %Inh
Please make sure the unit comes right after the number.

Reference set, count: 8
[[record]]
compound = "CCS(=O)c1ccc(-c2coc3ccc(-c4nnc(C)o4)cc23)cc1 (stereo not shown)"
readout_value = "0%"

[[record]]
compound = "CN(C)c1cc(-c2ccc3c(N)n[nH]c3c2)nc(N)n1"
readout_value = "27%"

[[record]]
compound = "Cl.c1ccc(Cn2cnc3cc(Nc4ncnc5ccccc45)ccc32)cc1"
readout_value = "42%"

[[record]]
compound = "Nc1nccc2scc(-c3ccc4c(c3)CCN4C(=O)Cc3ccccc3)c12"
readout_value = "6%"

[[record]]
compound = "Cn1c(=O)c(F)c(Nc2ccc(I)cc2F)c2c(=O)n(OC[C@H](O)CO)cnc21"
readout_value = "25%"

[[record]]
compound = "CCn1c(-c2ccoc2)nc2cnccc21"
readout_value = "3%"

[[record]]
compound = "COc1ccc(-c2coc3ccc(-c4nnc(SCc5cccc(C#N)c5)o4)cc23)cc1"
readout_value = "5%"

[[record]]
compound = "O=C1NC(=O)C(c2ccccc2)=C1Nc1cccc(O)c1"
readout_value = "16%"


Give %Inh for each of the items listed below.
1. O=C(Nc1ccc2c(c1)OCO2)NC1CCN(c2ccnc(NCc3ccc(F)cc3)n2)CC1
2. O=C(Nc1n[nH]c2cc(-c3ccccc3F)ccc12)C1CC1
3. CCC(=O)c1c(-c2ccccc2)c2cc(Cl)ccc2c(=O)n1Cc1ccc(C(=O)O)cc1
4. COc1cc2nccc(Nc3ccc(OCc4ccc(NC(C)=O)cc4)cc3)c2cc1OC.Cl

OUTPUT:
1: 36%; 2: 14%; 3: 0%; 4: 16%

Parameter requested: %Inh. Apply to each item below.
1. COc1cc2ncn(-c3cc(OCc4ccncc4Br)c(C(N)=O)s3)c2cc1OC
2. COc1cc(OC)cc(-c2cc3cnc(N)nc3nc2NC(=O)NC(C)(C)C)c1
3. CN1C(=O)C(Nc2cc(Cl)c(O)c(Cl)c2)=C(c2ccc(Cl)cc2)C1=O

OUTPUT:
["0%", "0%", "0%"]

Can you give me %Inh for all of these, one by one?
1. O=C(Nc1n[nH]c2nc(-c3ccccc3)c(Cl)cc12)C1CC1
2. Cc1nn2c(=O)cc(N3CCOCC3)nc2n1Cc1cccc(Cl)c1Cl
3. Cc1nnc(-c2ccc(C)c(-c3ccc(C(=O)O)cc3)c2)o1
4. Fc1cccc(CSc2nnc(-c3ccc4c(c3)CCO4)o2)c1

OUTPUT:
1. 11%
2. 22%
3. 8%
4. 0%
